Measured values drawn from paper PMC9079302 for this set.

target: P450 3A5 (Homo sapiens, UniProt P20815); construct: 4-histidine tag (C); made in house; host or cells: Escherichia coli; assay: Type 1 spectral shift equilibrium binding to P450 3A5; details: type 1 spectral shift, one-site binding (Equation 2; tiamulin tight-binding Equation 3), [P450] 0.94–2.03 μM; read-out: Kd
Sequence (P20815 with tags, fused parts or gaps limits assumed): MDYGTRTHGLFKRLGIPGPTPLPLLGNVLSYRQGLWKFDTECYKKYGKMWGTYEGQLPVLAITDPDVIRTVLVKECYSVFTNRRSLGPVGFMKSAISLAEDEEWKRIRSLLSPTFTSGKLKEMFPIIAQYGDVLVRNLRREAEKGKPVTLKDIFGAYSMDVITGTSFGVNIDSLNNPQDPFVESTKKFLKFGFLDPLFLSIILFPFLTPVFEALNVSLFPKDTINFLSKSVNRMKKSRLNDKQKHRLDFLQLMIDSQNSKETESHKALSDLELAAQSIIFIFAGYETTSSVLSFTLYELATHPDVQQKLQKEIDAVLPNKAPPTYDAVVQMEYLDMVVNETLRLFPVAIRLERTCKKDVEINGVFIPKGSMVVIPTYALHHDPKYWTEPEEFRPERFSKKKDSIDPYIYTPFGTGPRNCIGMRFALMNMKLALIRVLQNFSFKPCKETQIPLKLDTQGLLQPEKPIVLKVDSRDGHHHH
endpoint: Kd (µM)

1 = C=C[C@]1(C)C[C@@H](OC(=O)CS[C@@H]2CC[C@@H](N)C[C@H]2O)[C@]2(C)[C@H](C)CC[C@]3(CCC(=O)[C@H]32)[C@@H](C)[C@@H]1O
2 = C=C[C@]1(C)C[C@@H](OC(=O)CO)[C@]2(C)[C@H](C)CC[C@]3(CCC(=O)[C@H]32)[C@@H](C)[C@@H]1O
3 = C=C[C@]1(C)C[C@@H](OC(=O)CS[C@@H]2C[C@H]3CC[C@@H](C2)N3C)[C@]2(C)[C@H](C)CC[C@]3(CCC(=O)[C@H]32)[C@@H](C)[C@@H]1O
4 = C=C[C@]1(C)C[C@@H](OC(=O)CSCCN(CC)CC)[C@]2(C)[C@H](C)CC[C@]3(CCC(=O)[C@H]32)[C@@H](C)[C@@H]1O
Ask: Sort the entries above numerically by Kd, high end first. A complete answer lists every label in the requested sequence.
Reply: 1, 2, 3, 4
